FYI, the data here is from ChEMBL document CHEMBL1201861.

# IC50 listing for each entry below
Tested on: HT-1376
Test: cells
Format: functional, cell-based, Homo sapiens
Details: Homo sapiens, HT-1376
Description: SANGER: Inhibition of human HT-1376 cell growth in a cell viability assay.

>>> measurement("CC(C)CCN1c2nc(Nc3cc(F)c(O)c(F)c3)ncc2N(C)C(=O)C1C (centres undefined)")
"4.23 µM"
>>> measurement("Nc1cccc2c1CN(C1CCC(=O)NC1=O)C2=O (centres undefined) [LENALIDOMIDE]")
"> 5 µM"
>>> measurement("Cn1cnc2c(F)c(Nc3ccc(Br)cc3Cl)c(C(=O)NOCCO)cc21 [SELUMETINIB]")
"> 4 µM"

IC50 reading for Oc1ccc2ccccc2c1SSc1c(O)ccc2ccccc12 : > 32 µM
